The values you see were collected from PubChem BioAssay AID651719.

measurement_target: Galanin receptor type 3 (Homo sapiens)
method_notes: GalR3 antagonists in HEK293 cells, primary screen, cell-based, fluorescence readout (AID 651719);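 also: forskolin and galanin both at EC90 stimulate the cells; cAMP rise reported by CNG channel membrane potential dye signal; 0% = forskolin plus galanin with DMSO and 100% = forskolin alone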
condition_notes: HEK293 GalR3-CNG cAMP membrane potential fluorescence; at 3 µM; hits give high values
Hit rate of the full screen: of about 360,000 compounds, about 1,600 (0.44%) were called active. This is one part of a sample in which actives are shown more often than they occur.

compound: O=c1c2ccccc2nc(-c2ccccc2)n1-c1ccccn1
measurement_target: Galanin receptor type 3 (Homo sapiens)
endpoint_unit: %
inhibition: -5.42
--
compound: CC12CCC(O)CC1CCC1C2CCC2(C)C(C(=O)CC(O)C(F)(F)F)CCC12 (stereo unspecified)
measurement_target: Galanin receptor type 3 (Homo sapiens)
endpoint_unit: %
inhibition: -1.5
--
compound: CCN(CC)C(=O)[C@@H]1C=C2c3cccc4[nH]c(Br)c(c34)C[C@H]2N(C)C1
measurement_target: Galanin receptor type 3 (Homo sapiens)
endpoint_unit: %
inhibition: -11
--
compound: O=c1[nH]c(=O)n(-c2ccccc2)c(O)c1C=NC12CN3CN(CN(C3)C1)C2
measurement_target: Galanin receptor type 3 (Homo sapiens)
endpoint_unit: %
inhibition: 5.15
--
compound: CCOC(=O)[C@]12Cc3ccccc3[C@H]1N(C1CCCCC1)C(=O)c1cc(OC)ccc12
measurement_target: Galanin receptor type 3 (Homo sapiens)
endpoint_unit: %
inhibition: -8.42
--
compound: CCN(CC)C(=O)c1ccc(NC(=O)c2cc(-n3cnnc3)ccc2Cl)cc1
measurement_target: Galanin receptor type 3 (Homo sapiens)
endpoint_unit: %
inhibition: -1.92
--
compound: CCCCCCCCCCCCn1ccc(=N)cc1
measurement_target: Galanin receptor type 3 (Homo sapiens)
endpoint_unit: %
inhibition: 75.6
--
compound: COc1cc(OC)cc(C(=O)NCCN2CCC3(CC2)C(=O)NCN3c2ccccc2)c1
measurement_target: Galanin receptor type 3 (Homo sapiens)
endpoint_unit: %
inhibition: -6.02
--
compound: CCC(C)NC1(c2ccccc2)CCCCC1 (stereo unspecified)
measurement_target: Galanin receptor type 3 (Homo sapiens)
endpoint_unit: %
inhibition: -2.56
--
compound: Cc1cc(N2CCNC[C@@H]2C)ccc1N1CC[C@H](O)C1
measurement_target: Galanin receptor type 3 (Homo sapiens)
endpoint_unit: %
inhibition: -7.28
--
compound: COc1ccc(CN2CCN(c3ccccc3F)CC2)c(OC)c1
measurement_target: Galanin receptor type 3 (Homo sapiens)
endpoint_unit: %
inhibition: -4.46
